# System: control Gram-negative E. coli 25922 strain
# run_description: Antibacterial activity, microbroth dilution MIC, E. coli 25922
# Format: cell-based, Escherichia coli
# assay_conditions: Escherichia coli; E. coli 25922, microbroth dilution; read-out: MIC, 25922
Please go through the items and note down their MIC.

CCc1c(-c2ccc(N3C[C@H]4CCN[C@H]4C3)cc2)[nH]c(=O)c(C(=O)O)c1O.Cl	1 to 3.5 µg/mL

List MIC for every entry below, keeping the order given.
1. O=C(O)c1c(O)cc(-c2ccc(N3CCCC3)cc2)[nH]c1=O
2. CCc1c(-c2ccc(NC)cc2)[nH]c(=O)c(C(=O)O)c1O

12.5 to 150 µg/mL
3.5 to 12.5 µg/mL

----------
# System: control Gram-negative E. coli 25922 strain
# run_description: Antibacterial activity, microbroth dilution MIC, E. coli 25922
# Assay type: cell-based, Escherichia coli
# assay_conditions: Escherichia coli; E. coli 25922, microbroth dilution; read-out: MIC, 25922
observable: MIC

Please review the entries below; each comes with its answer.
Cc1cc(C(=O)O)c(=O)[nH]c1-c1ccc(N(C)C)cc1 [Cpd 4]	12.5 to 150 µg/mL
CCc1cc(C(=O)O)c(=O)[nH]c1-c1ccc(N2CCC(CN)C2)cc1.O=C(O)C(F)(F)F (stereo not shown) [Cpd 188]	3.5 to 12.5 µg/mL
CCc1c(-c2ccc(N3CCCC3=O)cc2)[nH]c(=O)c(C(=O)O)c1O [Cpd 115]	3.5 to 12.5 µg/mL

Now, please, on to the next compound.
For reference, reported MIC for CCc1cc(C(=O)O)c(=O)[nH]c1-c1ccc(N2CCC[C@H]2CN2CCCC2)cc1.O=C(O)C(F)(F)F [Cpd 143] stands at 12.5 to 150 µg/mL

----------
# System: super sensitive Gram-negative Escherichia coli (E. coli) BAS849
# run_description: Antibacterial activity, microbroth dilution MIC, E. coli BAS849
# Assay type: cell-based
# assay_conditions: Escherichia coli; E. coli BAS849, microbroth dilution; read-out: MIC, BAS849
observable: MIC

CCc1c(-c2ccc(N3CCC(c4ccccn4)C3)cc2)[nH]c(=O)c(C(=O)O)c1O (stereo not drawn) [Cpd 286]	< 1 µg/mL

List MIC for every entry below, keeping the order given.
1. CCc1c(-c2ccc(N3CCC(O)CC3)cc2)[nH]c(=O)c(C(=O)O)c1O [Cpd 280]
2. CCc1cc(C(=O)O)c(=O)[nH]c1-c1ccc(N2CCC(N)CC2)cc1 [Cpd 228]
3. CCc1c(-c2ccc(N(C)CCO)cc2)[nH]c(=O)c(C(=O)O)c1O [Cpd 18]
4. CCc1c(-c2ccc(N(C)C)cc2C)[nH]c(=O)c(C(=O)O)c1O [Cpd 56]
5. CCc1cc(C(=O)O)c(=O)[nH]c1-c1ccc(N2CCC[C@H]2C(=O)O)cc1 [Cpd 157]

1. < 1 µg/mL
2. 12.5 to 150 µg/mL
3. < 1 µg/mL
4. 3.5 to 12.5 µg/mL
5. < 1 µg/mL

List MIC for every entry below, keeping the order given.
1. CCc1c(-c2ccc(N3CCC4(CCNCC4)C3)cc2)[nH]c(=O)c(C(=O)O)c1O.Cl [Cpd 278]
2. CCc1c(-c2ccc(N3CCC(N(Cc4ccccc4)Cc4ccccc4)CC3)cc2)[nH]c(=O)c(C(=O)O)c1O [Cpd 283]
3. CCc1cc(C(=O)O)c(=O)[nH]c1-c1ccc(N2CCCC2)cc1C [Cpd 37]
4. CCc1cc(C(=O)O)c(=O)[nH]c1-c1ccc(N2CCCC2)cc1 [Cpd 99]
5. CCc1cc(C(=O)O)c(=O)[nH]c1-c1ccc(N2C[C@H]3CC[C@@H](NC)[C@H]3C2)cc1.Cl [Cpd 200]

< 1 µg/mL
3.5 to 12.5 µg/mL
12.5 to 150 µg/mL
< 1 µg/mL
1 to 3.5 µg/mL

List MIC for every entry below, keeping the order given.
1. CCc1c(-c2ccc(OC)cc2OC)[nH]c(=O)c(C(=O)O)c1O [Cpd 36]
2. CCCc1c(-c2ccc(N(C)C)cc2)[nH]c(=O)c(C(=O)O)c1O [Cpd 9]
3. CCc1cc(C(=O)O)c(=O)[nH]c1-c1ccc(N2CCCC2C)cc1 (stereo not drawn) [Cpd 139]

3.5 to 12.5 µg/mL
< 1 µg/mL
< 1 µg/mL

List MIC for every entry below, keeping the order given.
1. CCc1c(-c2ccc(N3CCC(O)C3)cc2)[nH]c(=O)c(C(=O)O)c1O (stereo not drawn) [Cpd 126]
2. CCc1cc(C(=O)O)c(=O)[nH]c1-c1ccc(N(C)CCOC2CCCCO2)cc1 (stereo not drawn) [Cpd 16]
3. CCc1cc(C(=O)O)c(=O)[nH]c1-c1ccc(N2C[C@@H]3[C@@H](N)[C@@H]3C2)cc1 [Cpd 177]

1: < 1 µg/mL; 2: < 1 µg/mL; 3: < 1 µg/mL

For reference, reported MIC for CCc1c(-c2ccc(C)cc2)[nH]c(=O)c(C(=O)O)c1O [Cpd 28] stands at < 1 µg/mL

----------
# Test system: super sensitive Gram-negative Escherichia coli (E. coli) BAS849
# run_description: Antibacterial activity, microbroth dilution MIC, E. coli BAS849
# Type: cell-based
# assay_conditions: Escherichia coli, read-out: MIC, BAS849
Please go through the items and note down their MIC.

CCc1c(-c2ccc(N3C[C@H]4CCC[C@@H](N)[C@H]4C3)cc2)[nH]c(=O)c(C(=O)O)c1O.O=C(O)C(F)(F)F	< 1 mg/L

List MIC for every entry below, keeping the order given.
1. CCc1cc(C(=O)O)c(=O)[nH]c1-c1ccc(N2C[C@H]3CC[C@@H](N)[C@H]3C2)cc1.O=C(O)C(F)(F)F
2. CCc1cc(C(=O)O)c(=O)[nH]c1-c1ccc(N2C[C@H]3CC[C@H](N)[C@H]3C2)cc1.O=C(O)C(F)(F)F
3. CCc1cc(C(=O)O)c(=O)[nH]c1-c1ccc(N2CC(N)C3(CC3)C2)cc1.O=C(O)C(F)(F)F (centres unmarked)
4. CCc1cc(C(=O)O)c(=O)[nH]c1-c1ccc(N2CCC(N(CC)CC)C2)cc1.O=C(O)C(F)(F)F (centres unmarked)

1: 1 to 3.5 mg/L; 2: 1 to 3.5 mg/L; 3: 1 to 3.5 mg/L; 4: < 1 mg/L

----------
Please go through the items and note down their MIC.
# System: control Gram-negative E. coli 25922 strain
# run_description: Antibacterial activity, microbroth dilution MIC, E. coli 25922
# Assay type: cell-based, Escherichia coli
# assay_conditions: Escherichia coli; E. coli 25922, microbroth dilution; read-out: MIC, 25922

Please review the entries below; each comes with its answer.
CCc1cc(C(=O)O)c(=O)[nH]c1-c1ccc(OC)cc1C	12.5 to 150 µg/mL
CCc1c(-c2ccc(N3CC4(CNC4)C3)cc2)[nH]c(=O)c(C(=O)O)c1O	12.5 to 150 µg/mL
CCc1c(-c2ccccc2N2CCCC2)[nH]c(=O)c(C(=O)O)c1O	12.5 to 150 µg/mL
CCc1cc(C(=O)O)c(=O)[nH]c1-c1cnn(C)c1	12.5 to 150 µg/mL
CCc1c(-c2ccc(N3CCCCC3)cc2OC)[nH]c(=O)c(C(=O)O)c1O	12.5 to 150 µg/mL
CN(C)c1ccc(-c2[nH]c(=O)c(C(=O)O)cc2C(=O)O)cc1	12.5 to 150 µg/mL
CCc1cc(C(=O)O)c(=O)[nH]c1-c1ccc(N(C)CCN(C)C)cc1	1 to 3.5 µg/mL
CCc1cc(C(=O)O)c(=O)[nH]c1-c1ccc(N(CC)CC)cc1	3.5 to 12.5 µg/mL

List MIC for every entry below, keeping the order given.
1. CN(C)c1ccc(-c2[nH]c(=O)c(C(=O)O)c(O)c2C2CCCCC2)cc1
2. CCc1c(-c2ccc(N(CC)CC)cc2)[nH]c(=O)c(C(=O)O)c1O
3. CCc1cc(C(=O)O)c(=O)[nH]c1-c1ccc(N2CCCC2=O)cc1
4. CCc1c(-c2ccc(N3CCC(N4CCCC4)C3)cc2)[nH]c(=O)c(C(=O)O)c1O.Cl (stereo not shown)

["12.5 to 150 µg/mL", "12.5 to 150 µg/mL", "12.5 to 150 µg/mL", "< 1 µg/mL"]

----------
Please go through the items and note down their MIC.
# Tested on: super sensitive Gram-negative Escherichia coli (E. coli) BAS849
# run_description: Antibacterial activity, microbroth dilution MIC, E. coli BAS849
# Assay type: cell-based
# assay_conditions: Escherichia coli; E. coli BAS849, microbroth dilution; read-out: MIC, BAS849

Please review the entries below; each comes with its answer.
CCc1cc(C(=O)O)c(=O)[nH]c1-c1cc(CN2CCCCC2)n(C)c1 [Cpd 349]	12.5 to 150 µg/mL
CCc1cc(C(=O)O)c(=O)[nH]c1-c1ccc(N2CCC(CNC)C2)cc1.Cl (centres unmarked) [Cpd 184]	1 to 3.5 µg/mL

List MIC for every entry below, keeping the order given.
1. CCc1cc(C(=O)O)c(=O)[nH]c1-c1ccc(N2CCCC2)c(OC)c1 [Cpd 66]
2. CCCc1cc(C(=O)O)c(=O)[nH]c1-c1ccc(N(C)C)cc1 [Cpd 8]
3. CCc1cc(C(=O)O)c(=O)[nH]c1-c1ccc(N2CC(N)C2)cc1 [Cpd 170]

3.5 to 12.5 µg/mL
< 1 µg/mL
12.5 to 150 µg/mL

Values from patent US9650395B2
